Experiment: chemical genetic growth profiling, strain panel (AID 1159580);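 further: tested at 20 µM; growth read once vehicle control cultures reached saturation at 30 °C; 1 = growth at the plate median or of vehicle wells; lower values mean less growth of the strain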
Settings: S. cerevisiae deletion strains, growth OD, locus YNR052C, strain pop2, active compounds read low
The whole screen tested about 5,500 compounds, of which about 2,000 (36%) were called active. Roughly 18% stayed inconclusive and do not appear here. This is one part of the list.
The entries below are paired with their reported normalized growth.
Just the number, please.

Worked cases, answers included:
C=C(C)C1(O)OC(=O)C=C1OC (stereo not given)
1.01
CC(C)=CCCC(C)[C@@H]1CC[C@]2(C)C3=C(CC[C@@]12C)C1(C)CC[C@H](O)C(C)(C)C1CC3 (stereo not given in full)
0.968
NC1=NCCN1CC(=O)O
0.998
COc1cc(C/C=C/c2ccccc2)c(OC)cc1O
0.969
CC(CCC(=O)O)[C@H]1CCC2C3CC[C@@H]4CC(=O)CC[C@]4(C)C3C=C[C@@]21C (stereo not given in full)
0.931
NC(Cn1ccc(=O)c(O)c1)C(=O)O (stereo not given)
0.992

Task: Item under review: COc1ccccc1OCC(O)CO (stereo not given) . Reported normalized growth?
Result: 0.998

Task: Item under review: CC(=O)O[C@H]1CCC2(C)C3=C(CCC2C1(C)C)[C@@]1(C)CC[C@@H](C(C)CCC=C(C)C)[C@]1(C)CC3 (stereo not given in full) . Reported normalized growth?
Result: 0.99

Task: Item under review: CC(C)=CCCC(C)C1CC[C@@]2(C)C3=C(CC[C@]12C)C1(C)CC[C@H](O)C(C)(C)C1CC3 (stereo not given in full) . Reported normalized growth?
Result: 0.961

Task: Item under review: C[C@H](CCC(=O)O)[C@H]1CCC2C3C(=O)CC4CC(=O)CC[C@]4(C)C3CC(=O)[C@@]21C (stereo not given in full) . Reported normalized growth?
Result: 1

###

Experiment: chemical genetic growth profiling, strain panel (AID 1159580)
Conditions: S. cerevisiae deletion strains, growth OD, locus YDR069C, strain doa4, active compounds read low
Screen size: about 5,500 compounds; about 2,000 (36%) were called active. About 18% were inconclusive and are not listed. This is one part of the list.
Quantity Kind: normalized growth
Just the number, please.

Worked cases, answers included:
CCCN(CCC)S(=O)(=O)c1ccc(C(=O)O)cc1
0.987
O=C(O)c1cccnc1
1.01

// next entry
Task: Item under review: Cc1cn[nH]c1 . Reported normalized growth?
Result: 1.06

###

Assay: chemical genetic growth profiling, strain panel (AID 1159580);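 further: tested at 20 µM; growth read once vehicle control cultures reached saturation at 30 °C; 1 = growth at the plate median or of vehicle wells; lower values mean less growth of the strain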
Conditions: S. cerevisiae deletion strains, growth OD, locus YLR113W, strain HOG1, active compounds read low
Screen size: about 5,500 compounds; about 2,000 (36%) were called active. Roughly 18% stayed inconclusive and do not appear here. Some of the results follow.
Quantity Kind: normalized growth
Just the number, please.

Worked cases, answers included:
CN(C)[C@@H]1C(=O)C(C(N)=O)=C(O)[C@@]2(O)C(=O)C3=C(O)c4c(O)cccc4[C@@](C)(O)[C@H]3[C@H](O)[C@@H]12
0.995
CS(=O)(=O)Nc1ccc([N+](=O)[O-])cc1Oc1ccccc1
1.03
CN(C)CCCN1c2ccccc2Sc2ccc(Cl)cc21
0.982
Clc1ccc(SCc2ccsc2-c2ncns2)cc1
0.923
CC(=O)c1ccc(Cl)c(N=Cc2cc(Br)cc(Br)c2O)c1
0.161

Task: Item under review: O=C(O)c1cc(O)c2c(c1)[C@@H]([C@@H]1c3cc(C(=O)O)cc(O)c3C(=O)c3c(O[C@H]4O[C@H](CO)[C@@H](O)[C@H](O)[C@H]4O)cccc31)c1cccc(O[C@H]3O[C@H](CO)[C@@H](O)[C@H](O)[C@H]3O)c1C2=O . Reported normalized growth?
Result: 1.06

Task: Item under review: O=C(OCc1ccccc1)c1ccccc1 . Reported normalized growth?
Result: 0.783

Task: Item under review: CC(=O)O[C@H]1CCC2(C)C3=C(CCC2C1(C)C)[C@]1(C)CCC(C(C)CCC=C(C)C)[C@@]1(C)CC3 (stereo not given in full) . Reported normalized growth?
Result: 0.957

Task: Item under review: O=C1c2cccc3c(Sc4ccccc4)ccc(c23)C(=O)N1NCCO . Reported normalized growth?
Result: 0.771

Task: Item under review: CC(C)NCC(O)COc1ccc(COCCOC(C)C)cc1 (stereo not given) . Reported normalized growth?
Result: 0.984

Task: Item under review: CN(C)CCCN1c2ccccc2CCc2ccc(Cl)cc21 . Reported normalized growth?
Result: 0.983

Task: Item under review: Oc1cccc(O)c1 . Reported normalized growth?
Result: 1.01

Task: Item under review: NC(COCc1ccccc1)C(=O)O (stereo not given) . Reported normalized growth?
Result: 1.01

Task: Item under review: COc1ccc2cc(CCC(C)=O)ccc2c1 . Reported normalized growth?
Result: 0.965

Task: Item under review: NCC(N)C(=O)c1ccccc1 (stereo not given) . Reported normalized growth?
Result: 0.949

Task: Item under review: Cc1scc2c1N(C(=O)CN1CCN(C)CC1)c1ccccc1NC2=O . Reported normalized growth?
Result: 0.977

Task: Item under review: CC(C)c1ccc2c(c1)CCC1C(C)(C(N)=O)CCCC21C (stereo not given) . Reported normalized growth?
Result: 0.78

Task: Item under review: CN(C)CCCN1c2ccccc2CCc2ccccc21 . Reported normalized growth?
Result: 1.01

Task: Item under review: O=C(O)c1cc(O)c2c(c1)[C@@H]([C@H]1c3cc(C(=O)O)cc(O)c3C(=O)c3c(O[C@H]4O[C@H](CO)[C@@H](O)[C@H](O)[C@H]4O)cccc31)c1cccc(O[C@H]3O[C@H](CO)[C@@H](O)[C@H](O)[C@H]3O)c1C2=O . Reported normalized growth?
Result: 1.01

Task: Item under review: Clc1ccc(CN2CCN(c3cccc4[nH]ccc34)CC2)cc1Cl . Reported normalized growth?
Result: 1.07

Task: Item under review: COC(=O)[C@H](Cc1ccccc1)NC(=O)/C(=C1\OC(=O)C(c2ccccc2)=C1O)c1ccccc1 . Reported normalized growth?
Result: 0.961

Task: Item under review: CC(C)c1ccc2c(c1)CCC1[C@](C)(CN)CCC[C@]21C (stereo not given in full) . Reported normalized growth?
Result: 0.999

Task: Item under review: CCOC(=O)c1ccc(Cl)c(N=Cc2cc(Cl)cc(Cl)c2O)c1 . Reported normalized growth?
Result: 0.377

###

Assay: chemical genetic growth profiling, strain panel (AID 1159580);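 further: tested at 20 µM; growth read once vehicle control cultures reached saturation at 30 °C; 1 = growth at the plate median or of vehicle wells; lower values mean less growth of the strain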
Settings: S. cerevisiae deletion strains, growth OD, locus YLR330W, strain CHS5
Hit rate of the full screen: of about 5,500 compounds, about 2,000 (36%) were called active. Inconclusive results (about 18%) are left out. No stated cut-off is given here; in the data, active means normalized growth mostly below about 0.91 (no sharp cut-off); inconclusive means no clear call, values can overlap the other calls; inactive means mostly above about 0.92. The list shows a part of the results.
Thanks in advance; please answer with one of these: active, inactive

COC(=O)c1c(C)c2c(c(C)c1O)OC(=O)c1c(C)c(Cl)c(O)c(Cl)c1O2
inactive
Cc1ccc2c(c1)C1(C)CCCC(C)(C(=O)O)C1CC2 (stereo unspecified)
inactive
COc1c(C)c2c(c(C)c1Cl)Oc1c(Cl)c(OC)c(Cl)c(C)c1C(=O)O2
inactive
CC(C)c1ccc2c(c1)CCC1[C@](C)(CN)CCC[C@]21C (stereo partly specified)
active

Task: How did this test come out for O=C1NC(O)=NC1(c1ccccc1)c1ccccc1 ?
Result: inactive

Task: How did this test come out for CC(=O)Oc1c(Cl)c(C)c2c(c1Cl)OC(=O)c1c(C)c(Cl)c(OC(C)=O)c(Cl)c1O2 ?
Result: inactive

###

The entries below are paired with their reported normalized growth.
Experiment: chemical genetic growth profiling, strain panel (AID 1159580);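 further: tested at 20 µM; growth read once vehicle control cultures reached saturation at 30 °C; 1 = growth at the plate median or of vehicle wells; lower values mean less growth of the strain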
Conditions: S. cerevisiae deletion strains, growth OD, locus YGL173C, strain kem1, active compounds read low
In all, about 5,500 compounds went through this assay and about 2,000 (36%) were called active. Roughly 18% stayed inconclusive and do not appear here. The list shows a part of the results.
Just the number, please.

Worked cases, answers included:
CC(=O)O[C@@H]1CC2C(C)(C)C(=O)C=C[C@]2(C)C2CC[C@]3(C)C(=CC(=O)O[C@H]3c3ccoc3)[C@@]21C (some centres undefined)
1
CCC(C)C(=O)OC1[C@@H]2CC3=C4CC(=O)O[C@@H](c5ccoc5)[C@]4(C)CCC3[C@@](C)(C2=O)[C@@H](CC(=O)OC)C1(C)C (some centres undefined)
1
CC(=O)O[C@H]1CC[C@@]2(C)C(C[C@@H](OC(C)=O)[C@@]3(C)C4=CC(=O)O[C@@H](c5ccoc5)[C@]4(C)CCC23)C1(C)C (some centres undefined)
1.01
COc1cc(C/C=C/c2ccccc2)c(OC)cc1O
0.977
CC(C)CCCC(C)C1CCC2C3CC(=O)[C@H]4C[C@@H](O)CC[C@]4(C)C3CC[C@]12C (some centres undefined)
1
CN[C@@H]1[C@H](O)[C@H](NC)[C@H]2O[C@@]3(O)C(=O)C[C@@H](C)O[C@H]3O[C@@H]2[C@H]1O
1.03
COC(=O)c1c(OC)cc2c(c1C)Oc1c(Cl)c(OC(C)=O)c(Cl)c(C)c1C(=O)O2
0.983
CC(C)CCCC(C)C1CCC2C3=CC[C@H]4C[C@@H](O)CC[C@]4(C)C3CC[C@@]21C (some centres undefined)
0.968

Task: Item under review: CC(C)CCCC(C)[C@H]1CCC2C3CC=C4CC(=O)CC[C@]4(C)C3CC[C@@]21C (some centres undefined) . Reported normalized growth?
Result: 0.995

Task: Item under review: O=C(OOC(=O)c1ccccc1)c1ccccc1 . Reported normalized growth?
Result: 0.956

Task: Item under review: CC1=CCCC2C1(C)CCC(C)C2(C)CC/C(C)=C/C[n+]1cn(C)c2c(N)ncnc21 (centres undefined) . Reported normalized growth?
Result: 0.993

Task: Item under review: CC(=O)O[C@@H]1CC2C(C)(C)[C@H](O)C=C[C@]2(C)C2CC[C@]3(C)C(=CC(=O)O[C@H]3c3ccoc3)[C@@]21C (some centres undefined) . Reported normalized growth?
Result: 0.977

Task: Item under review: CC1(C)CC2C1CC[C@]1(CBr)CCC3C(CC(=O)O)C(=O)O[C@@]32C1 (some centres undefined) . Reported normalized growth?
Result: 1.01

Task: Item under review: CN1CCN(C(=O)OC2c3nccnc3C(=O)N2c2ccc(Cl)cn2)CC1 (centres undefined) . Reported normalized growth?
Result: 0.976

Task: Item under review: C[n+]1ccccc1/C=N/O . Reported normalized growth?
Result: 0.991
